# Test system: HOP-62 NSCLC
# protocol.text: NCI tumour cell line growth inhibition, 48 h
measured.parameter: TGI

Lookup result for `CCCCCCCCCCCC(=O)OCCOCCOCCOCCOCCOCc1ccc(OC)cc1` ; measured TGI: > 100 µM

Lookup result for `N/C(=N\N=C\c1ccc(-c2ccccc2)cc1)N[N+](=O)[O-]` ; measured TGI: > 100 µM

Lookup result for `CC1=C2C(=O)c3ccccc3C(=O)[C@H]2[C@H]2CCO[C@H]2O1` ; measured TGI: 40 µM

Lookup result for `c1ccc(SC(CCCCC(Sc2ccccc2)Sc2ccccc2)Sc2ccccc2)cc1` ; measured TGI: > 100 µM

Lookup result for O=C1OC(CCCl)(c2ccccc2)CC1CN1CCOCC1 (stereo not given) ; measured TGI: > 100 µM

Lookup result for `COc1ccc2[nH]c3c(c2c1)CCn1c-3nc2ccccc2c1=O` ; measured TGI: > 25 µM

Lookup result for CCC1C(c2cc(OC)c(OC)c(OC)c2)c2cc3c(cc2OC1N1CCCC1)OCO3 (stereo not given) ; measured TGI: 15.9 µM

Lookup result for `COc1ccc(-c2c3c(nc4nc(SCCc5ccccc5)nc(N)c24)CCCC3)cc1OC` ; measured TGI: > 100 µM

Lookup result for `COc1ccccc1NC(=O)/C(Cc1nc2ccc([N+](=O)[O-])cc2[nH]c1=O)=N\NC(=O)C[N+](C)(C)C` ; measured TGI: > 100 µM

Lookup result for CC1=C(CCC(C)N(C)Cc2ccc(OCCCN3CCCC3)cc2)C(C)(C)CCC1 (stereo not given) ; measured TGI: 17.5 µM

Lookup result for COc1nc2c(c(=O)n1C)N(C(C)=O)C1C(N2)OCC(OC(C)=O)C1OC(C)=O (stereo not given) ; measured TGI: > 10 µM

Lookup result for COC(=O)C1CC2(CCC1=O)Cc1ccccc1C2=O (stereo not given) ; measured TGI: > 100 µM

Lookup result for `COc1cc2c(c(OC)c1OC)C(=O)[C@H](O)[C@H]2NC(N)=O` ; measured TGI: > 100 µM

Lookup result for `COc1cc2c(cc1OCCCCOc1cc3c(cc1OC)C(=O)N1CCC[C@H]1CN3)N=C[C@@H]1CCCN1C2=O` ; measured TGI: > 100 µM

Lookup result for `CCOC(=O)c1nc2ccc([N+](=O)[O-])cc2c2c1CCO2` ; measured TGI: > 100 µM

###

# System: UACC-62 melanoma
# protocol.text: NCI tumour cell line growth inhibition, 48 h
I'd be grateful if you could share measured GI50 for these entries.

Lookup result for C[C@]12CCC3[C@@H](CC[C@@H]4c5nonc5CC[C@]34C)C1CCC(=O)N2 (stereo not given in full) ; measured GI50: > 84 µM

Lookup result for CCN1CCC(CCOC)(CN2c3ccccc3Sc3ccc(Cl)cc32)C1 (stereo not given) ; measured GI50: 2.05 µM

Lookup result for `COc1cccc(C=Nc2cc(C)ccn2)c1O.COc1cccc(C=Nc2cc(C)ccn2)c1O.[Cu]` ; measured GI50: 15.8 µM

Lookup result for `N/C(=N\N=C\c1ccc(-c2ccccc2)cc1)N[N+](=O)[O-]` ; measured GI50: 0.771 µM

Lookup result for `Cc1ccc(NC(=O)/C=C/c2ccccc2)c(C(N)=O)c1` ; measured GI50: 3.44 µM

Lookup result for `CN(C)c1ccc2c(c1)Sc1cc(N(C)C)ccc1N2C(=O)c1ccccc1` ; measured GI50: 17.5 µM

Lookup result for O=C(C1CCCCC1)[C@@H]1[C@]2(C(=O)NC3CCCCC32)[C@@H]2CCCN2[C@@]12C(=O)NC1CCC(Cl)CC12 (stereo not given in full) ; measured GI50: 91.9 µM

Lookup result for `C=CC(=O)N1CCN(c2ccc3cccc(NC(=O)c4cnc(C)cn4)c3n2)CC1` ; measured GI50: 2.46 µM

Lookup result for `COc1ccc(-c2n[nH]nc2-c2cc(OC)c3c(c2OC)OCO3)cc1` ; measured GI50: 0.553 µM

Lookup result for `Cc1ccc(-c2cc(-c3ccc(C)cc3)nc(NCCNc3ccnc4cc(Cl)ccc34)n2)cc1` ; measured GI50: 1.77 µM

Lookup result for `O=C1c2c(c3c4ccccc4[nH]c3c3ccc4ccccc4c23)C(=O)N1CCN1CCCCC1` ; measured GI50: 1.21 µM

Lookup result for `O=C1c2ccccc2-c2c1c1ccc([N+](=O)[O-])cc1c(=O)n2CCCBr` ; measured GI50: > 100 µM

Lookup result for CC(=O)C(O)N1C(=O)C=CC1=O (stereo not given) ; measured GI50: 7170 µM

Lookup result for O=C(c1ccccc1)C(CN1CCOCC1)c1ccccc1 (stereo not given) ; measured GI50: 1.71 µM

Lookup result for CC1=C(CCC(C)N(C)Cc2ccc(OCCCN3CCCC3)cc2)C(C)(C)CCC1 (stereo not given) ; measured GI50: 2.11 µM

Where do these numbers come from? They come from PubChem BioAssay (NCI).
